# Method: MTT cell viability run in parallel with the Tat-hybrid assay
# Type: cell-based
# Particulars: human, Tat-hybrid reporter cell lines (HeLa); Table 6; second 'EC50' entry of the cell, values D/E
# Procedure: Cells were counted and plated into white 384-well or 96-well cell-culture treated assay plates and compounds were added. After 48 hours, the cells were prepared for luminescence assays that were performed on a plate reader (Tecan Evolution or MD Analyst). The cytotoxicity of each compound was determined in parallel via MTT-based cell viability assays. Tat hybrid reporter assay. […] Cells were counted and plated into white 384-well cell-culture treated assay plates and compounds were added. […]
Property Measured: EC50 at 48 h

CC(C)c1ccc2nc3sc(C(N)=O)c(N)c3cc2c1    < 40 µM
COc1ccc(-c2cc(C3CC3)nc3sc(C(N)=O)c(N)c23)cc1    > 40 µM
Cc1cc(C)c2c(N)c(C(N)=O)sc2n1    > 40 µM
CN(C)C(=O)c1sc2ncccc2c1N    < 40 µM

Fill in the blank: the reported EC50 at 48 h of COC(=O)c1sc2nc(C)cc(C)c2c1N is ____.
> 40 µM

###

# Test system: Tat-hybrid reporter cell lines (HeLa)
# Method: MTT cell viability run in parallel with the Tat-hybrid assay
# Format: cell-based
# Particulars: Table 6; at 50,000 nM
Property Measured: Tat hybrid cell viability at 50,000 nM

COc1ccc(-c2c(C#N)c(N)nc3sc(C(N)=O)c(N)c23)cc1OC    Y (Y = 30-60%)
COc1ccc(C(=O)c2sc3nc(C)c(C)c(C)c3c2N)cc1OC    X (X = >60%)
Cc1ccc(-c2c3c(nc4sc(C(N)=O)c(N)c24)CCC3)cc1    X (X = >60%)
COCc1cc(C)nc2sc(C(=O)N3CCOCC3)c(N)c12    Y (Y = 30-60%)
NC(=O)c1sc2ncccc2c1N    Y (Y = 30-60%)
CC(=O)c1sc2nc(C)cc(C)c2c1N    Y (Y = 30-60%)

Fill in the blank: the reported Tat hybrid cell viability at 50,000 nM of NC(=O)c1sc2nc(-c3cccnc3)ccc2c1N is ____.
X (X = >60%)

Fill in the blank: the reported Tat hybrid cell viability at 50,000 nM of CN(C)C(=O)c1sc2ncccc2c1N is ____.
X (X = >60%)

Fill in the blank: the reported Tat hybrid cell viability at 50,000 nM of NC(=O)c1sc2nc(C(F)F)cc(-c3ccco3)c2c1N is ____.
Y (Y = 30-60%)

Fill in the blank: the reported Tat hybrid cell viability at 50,000 nM of Cc1cc(C(F)F)nc2sc(C(N)=O)c(N)c12 is ____.
X (X = >60%)

Fill in the blank: the reported Tat hybrid cell viability at 50,000 nM of CCOc1ccc2nc3sc(C(N)=O)c(N)c3cc2c1 is ____.
X (X = >60%)

###

Quick list: CC50 at 48 h per entry.
# Method: MTT cell viability run in parallel with the Tat-hybrid assay
# Type: cell-based
# Particulars: human, Tat-hybrid reporter cell lines (HeLa); Table 5; read-out: Tat hybrid TC50

CCOc1ncccc1-c1cncc2sc(C(N)=O)c(N)c12    > 40 µM
COc1ccc(-c2cncc3sc(C(N)=O)c(N)c23)cc1 [drawing 136]    < 40 µM
NC(=O)c1sc2cncc(N3CCN(c4ccccc4O)CC3)c2c1N    < 40 µM
NC(=O)c1sc2cncc(-c3ccoc3)c2c1N    > 40 µM

Fill in the blank: the reported CC50 at 48 h of NC(=O)c1sc2cncc(-c3ccc4c(c3)OCO4)c2c1N [drawing 157] is ____.
< 40 µM

Fill in the blank: the reported CC50 at 48 h of COc1ccccc1-c1cncc2sc(C(N)=O)c(N)c12 is ____.
> 40 µM

Fill in the blank: the reported CC50 at 48 h of NC(=O)c1sc2cncc(-c3cccc4ccccc34)c2c1N is ____.
> 40 µM

Fill in the blank: the reported CC50 at 48 h of CCOc1ccc(-c2cncc3sc(C(N)=O)cc23)cc1 is ____.
< 40 µM

Fill in the blank: the reported CC50 at 48 h of NC(=O)c1sc2cncc(N3CCCC(c4nc5ccccc5o4)C3)c2c1N (stereo not shown) is ____.
< 40 µM

Fill in the blank: the reported CC50 at 48 h of COc1ccc(C(=O)N2CCN(c3cncc4sc(C(N)=O)c(N)c34)CC2)cc1F is ____.
< 40 µM

Fill in the blank: the reported CC50 at 48 h of NC(=O)c1sc2cncc(-c3cncc4ccccc34)c2c1N is ____.
> 40 µM
